tested on: Staphylococcus aureus; assay: Antibacterial activity against penicillin G resistance Staphylococcus aureus; assay type: functional; conditions: Staphylococcus aureus; read-out: MIC
measured property: MIC (µg/mL)
I only need the number, in µg/mL, no unit after it.

QUERY: May I ask what MIC has been recorded for CO/N=C(\C(=O)N[C@@H]1C(=O)N2C(C(=O)[O-])=C(C[n+]3ccc4ccsc4c3)CS[C@H]12)c1csc(N)n1 ?
RESULT: 4

QUERY: Which value of MIC has been reported for CO/N=C(\C(=O)N[C@@H]1C(=O)N2C(C(=O)[O-])=C(C[n+]3csc(CCOC=O)c3C)CS[C@H]12)c1csc(N)n1 in the records?
RESULT: 2

QUERY: # lookup: MIC of CCC(CC)c1cc[n+](CC2=C(C(=O)[O-])N3C(=O)[C@@H](NC(=O)/C(=N\OC)c4csc(N)n4)[C@H]3SC2)cc1
RESULT: 4

QUERY: Quick one: MIC for CO/N=C(\C(=O)N[C@@H]1C(=O)N2C(C(=O)[O-])=C(C[n+]3ccc4c(c3)ncn4C)CS[C@H]12)c1csc(N)n1 ?
RESULT: 16

QUERY: For the compound CO/N=C(\C(=O)N[C@@H]1C(=O)N2C(C(=O)[O-])=C(C[n+]3cccc(Cl)c3)CS[C@H]12)c1csc(N)n1 , what MIC is on record?
RESULT: 2

QUERY: Quick one: MIC for CO/N=C(\C(=O)N[C@@H]1C(=O)N2C(C(=O)[O-])=C(C[n+]3ccc4ccoc4c3)CS[C@H]12)c1csc(N)n1 ?
RESULT: 8

QUERY: // returns reported MIC for input CO/N=C(\C(=O)N[C@@H]1C(=O)N2C(C(=O)[O-])=C(C[n+]3ccc(C(N)=S)cc3)CS[C@H]12)c1csc(N)n1
RESULT: 2

QUERY: I am curious: what MIC value has been reported for CO/N=C(\C(=O)N[C@@H]1C(=O)N2C(C(=O)[O-])=C(C[n+]3cscc3C)CS[C@H]12)c1csc(N)n1 ?
RESULT: 4

QUERY: So what does the record say about MIC for CO/N=C(\C(=O)N[C@@H]1C(=O)N2C(C(=O)[O-])=C(C[n+]3cccc4c3CCC4)CS[C@H]12)c1csc(N)n1 ?
RESULT: 1

QUERY: So what's the measured MIC for this one? CO/N=C(\C(=O)N[C@@H]1C(=O)N2C(C(=O)[O-])=C(C[n+]3ccc4[nH]c(-c5cccs5)nc4c3)CS[C@H]12)c1csc(N)n1
RESULT: 8
